// data source = patent US20230084978A1

Experiment: Binding of peptides to synthetic melanin (Tricine-SDS-PAGE analysis)
Conditions: filtered preformed melanin; peptide/L-Dopa 1/4; 18 hours, pH 7.4
Excerpt: The binding of the peptide to the melanin can be verified by Tricine-SDS-PAGE analysis as described in Carpentier; 2017 (op. cit.). Briefly, samples (peptide-Mel or peptide alone) are loaded on acrylamide gels. Following electrophoresis, the gels are stained with Coomassie Brilliant Blue R-250, allowing the quantification of the free peptide in the gel. […]
Non-standard residues stand in square brackets, D forms with d. No end group written: not given here. Hyp = O=C(O)[C@@H]1C[C@@H](O)CN1
RECORDED_METRIC: Binding of peptides on synthetic melanin, Mel + peptide 18 hours at pH 7.4 (%)
Give a bare numeral; the unit % is implied.

Worked examples, 4 substances total:
{"SUBSTANCE": "P SIYRYYGL (PSIYRYYGL; Modified test peptide) [SEQ ID NO: 5]", "REPORTED_VALUE": 22}
{"SUBSTANCE": "Acetyl-R S SIYRYYGL (Ac-RSSIYRYYGL) [SEQ ID NO: 10]", "REPORTED_VALUE": 12}
{"SUBSTANCE": "Acetyl-K SIYRYYGL (Ac-KSIYRYYGL) [SEQ ID NO: 7]", "REPORTED_VALUE": 31}
{"SUBSTANCE": "Acetyl-R M SIYRYYGL (Ac-RMSIYRYYGL) [SEQ ID NO: 11]", "REPORTED_VALUE": 13}

// Binding of peptides on synthetic melanin, Mel + peptide 18 hours at pH 7.4 lookup, key: HydroxyP SIYRYYGL ([Hyp]SIYRYYGL) [SEQ ID NO: 6]
39

----------
assay: Binding of peptides to synthetic melanin (Tricine-SDS-PAGE analysis); conditions: filtered preformed melanin at pH 7.5; peptide/L-Dopa 1/4; 2 hours
Non-standard residues stand in square brackets, D forms with d. No end group written: not given here. Hyp = O=C(O)[C@@H]1C[C@@H](O)CN1
RECORDED_METRIC: Binding of peptides on synthetic melanin, Mel + peptide 2 hours (%)
Give a bare numeral; the unit % is implied.

Worked examples, 4 substances total:
{"SUBSTANCE": "HydroxP KVPRNQDWL ([Hyp]KVPRNQDWL) [SEQ ID NO: 16]", "DISPLAY_UNIT": "%", "REPORTED_VALUE": 35}
{"SUBSTANCE": "KVPRNQDWL (gp100 peptide) [SEQ ID NO: 1, reference compound]", "DISPLAY_UNIT": "%", "REPORTED_VALUE": 22}
{"SUBSTANCE": "P KVPRNQDWL (PKVPRNQDWL; Modified gp100 peptide) [SEQ ID NO: 15]", "DISPLAY_UNIT": "%", "REPORTED_VALUE": 11}
{"SUBSTANCE": "C KVPRNQDWL (CKVPRNQDWL; Modified gp100 peptide) [SEQ ID NO: 17]", "DISPLAY_UNIT": "%", "REPORTED_VALUE": 54}

For the next question, use this substance.
// Binding of peptides on synthetic melanin, Mel + peptide 2 hours lookup, key: M KVPRNQDWL (MKVPRNQDWL; Modified gp100 peptide) [SEQ ID NO: 18]
43

----------
Experiment: Binding of peptides to synthetic melanin (Tricine-SDS-PAGE analysis)
Settings: filtered preformed melanin at pH 7.5; peptide/L-Dopa 1/4; 18 hours
From the text: The binding of the peptide to the melanin can be verified by Tricine-SDS-PAGE analysis as described in Carpentier; 2017 (op. cit.). Briefly, samples (peptide-Mel or peptide alone) are loaded on acrylamide gels. Following electrophoresis, the gels are stained with Coomassie Brilliant Blue R-250, allowing the quantification of the free peptide in the gel. […]
Non-standard residues stand in square brackets, D forms with d. No end group written: not given here. Hyp = O=C(O)[C@@H]1C[C@@H](O)CN1
RECORDED_METRIC: Binding of peptides on synthetic melanin, Mel + peptide 18 hours (%)
Give a bare numeral; the unit % is implied.

Worked examples, 4 substances total:
{"SUBSTANCE": "HydroxP KVPRNQDWL ([Hyp]KVPRNQDWL) [SEQ ID NO: 16]", "REPORTED_VALUE": 100}
{"SUBSTANCE": "M KVPRNQDWL (MKVPRNQDWL; Modified gp100 peptide) [SEQ ID NO: 18]", "REPORTED_VALUE": 100}
{"SUBSTANCE": "P KVPRNQDWL (PKVPRNQDWL; Modified gp100 peptide) [SEQ ID NO: 15]", "REPORTED_VALUE": 100}
{"SUBSTANCE": "KVPRNQDWL (gp100 peptide) [SEQ ID NO: 1, reference compound]", "REPORTED_VALUE": 89}

For the next question, use this substance.
// Binding of peptides on synthetic melanin, Mel + peptide 18 hours lookup, key: C KVPRNQDWL (CKVPRNQDWL; Modified gp100 peptide) [SEQ ID NO: 17]
99

----------
assay: Binding of peptides to synthetic melanin (Tricine-SDS-PAGE analysis); settings: filtered preformed melanin at pH 7.5; peptide/L-Dopa 1/4; 10 minutes
Non-standard residues stand in square brackets, D forms with d. No end group written: not given here. Hyp = O=C(O)[C@@H]1C[C@@H](O)CN1
RECORDED_METRIC: Binding of peptides on synthetic melanin, Mel + peptide 10 minutes (%)
Give a bare numeral; the unit % is implied.

{"SUBSTANCE": "P KVPRNQDWL (PKVPRNQDWL; Modified gp100 peptide) [SEQ ID NO: 15]", "DISPLAY_UNIT": "%", "REPORTED_VALUE": 13}
{"SUBSTANCE": "C KVPRNQDWL (CKVPRNQDWL; Modified gp100 peptide) [SEQ ID NO: 17]", "DISPLAY_UNIT": "%", "REPORTED_VALUE": 9}
{"SUBSTANCE": "M KVPRNQDWL (MKVPRNQDWL; Modified gp100 peptide) [SEQ ID NO: 18]", "DISPLAY_UNIT": "%", "REPORTED_VALUE": 7}

// Binding of peptides on synthetic melanin, Mel + peptide 10 minutes lookup, key: KVPRNQDWL (gp100 peptide) [SEQ ID NO: 1, reference compound]
6

// Binding of peptides on synthetic melanin, Mel + peptide 10 minutes lookup, key: HydroxP KVPRNQDWL ([Hyp]KVPRNQDWL) [SEQ ID NO: 16]
12

----------
Binding of peptides on synthetic melanin, Mel + peptide 2 hours at pH 7.4 listing for selected substances.
assay: Binding of peptides to synthetic melanin (Tricine-SDS-PAGE analysis); details: filtered (10 kDa) preformed melanin; peptide/L-Dopa 1/4; 2 hours, pH 7.4
No end group written: not given here.
Give a bare numeral; the unit % is implied.

{"SUBSTANCE": "Acetyl-R SIYRYYGL (Ac-RSIYRYYGL) [SEQ ID NO: 4]", "REPORTED_VALUE": 17}
{"SUBSTANCE": "Acetyl-R C SIYRYYGL (Ac-RCSIYRYYGL) [SEQ ID NO: 8]", "REPORTED_VALUE": 53}
{"SUBSTANCE": "Acetyl-R F SIYRYYGL (Ac-RFSIYRYYGL) [SEQ ID NO: 13]", "REPORTED_VALUE": 0}
{"SUBSTANCE": "P SIYRYYGL (PSIYRYYGL; Modified test peptide) [SEQ ID NO: 5]", "REPORTED_VALUE": 7}
{"SUBSTANCE": "Acetyl-R S SIYRYYGL (Ac-RSSIYRYYGL) [SEQ ID NO: 10]", "REPORTED_VALUE": 0}

For the next question, use this substance.
// Binding of peptides on synthetic melanin, Mel + peptide 2 hours at pH 7.4 lookup, key: Acetyl-R M SIYRYYGL (Ac-RMSIYRYYGL) [SEQ ID NO: 11]
0

----------
experiment: Binding of peptides to synthetic melanin (Tricine-SDS-PAGE analysis); conditions: filtered (10 kDa) preformed melanin; peptide/L-Dopa 1/4; 2 hours, pH 7.4
Non-standard residues stand in square brackets, D forms with d. No end group written: not given here. Hyp = O=C(O)[C@@H]1C[C@@H](O)CN1
RECORDED_METRIC: Binding of peptides on synthetic melanin, Mel + peptide 2 hours at pH 7.4 (%)
Give a bare numeral; the unit % is implied.

Worked examples, 4 substances total:
{"SUBSTANCE": "SIYRYYGL [SEQ ID NO: 3, reference compound]", "REPORTED_VALUE": 0}
{"SUBSTANCE": "Acetyl-K SIYRYYGL (Ac-KSIYRYYGL) [SEQ ID NO: 7]", "REPORTED_VALUE": 0}
{"SUBSTANCE": "HydroxyP SIYRYYGL ([Hyp]SIYRYYGL) [SEQ ID NO: 6]", "REPORTED_VALUE": 23}
{"SUBSTANCE": "Acetyl-R W SIYRYYGL (Ac-RWSIYRYYGL) [SEQ ID NO: 14]", "REPORTED_VALUE": 0}

// Binding of peptides on synthetic melanin, Mel + peptide 2 hours at pH 7.4 lookup, key: Acetyl-R T SIYRYYGL (Ac-RTSIYRYYGL) [SEQ ID NO: 12]
0
